# systemName: T1, Anti-PSMA Fab (SEQ ID NOs: 19, 20)
# T1 construct: Biotinylated PSMA Fab captured on neutravidin coated plates in the phage ELISA; also called 006 PSMA Fab
# protocolDescription: phage binding ELISA; clonal phage supernatant on biotinylated PSMA Fab captured on neutravidin plates, anti-M13 HRP detection
measure: Anti-PSMA Fab (SEQ ID NOs: 19, 20) signal

So, IEKMCKPAWMCWAD [Phage-1917] ? Its Anti-PSMA Fab (SEQ ID NOs: 19, 20) signal was 2

So, SFAWCIPPWMCEIT [Phage-1915] ? Its Anti-PSMA Fab (SEQ ID NOs: 19, 20) signal was 2

So, VSKLCIPMWMCETS [Phage-1919] ? Its Anti-PSMA Fab (SEQ ID NOs: 19, 20) signal was 1.99
